- Procedure details: Antifungal activity against Candida albicans clinical isolate 45 after 16 hrs in presence of 0.5 ug/ml of isavuconazole by broth microdilution assay
- Type: functional
So I've got a bunch of compounds here, and I need their pEC50 values.
Answers are plain numbers, as −log10 of the molar value.

| Test smiles | pEC50 |
| --- | --- |
| COc1cc(Br)ccc1-n1cc(C(=O)NCC(=O)NCCC2=CCCCC2)c2ccccc2c1=O | 6.96 |

Now consider a different compound.
Identify measured pEC50 associated with COc1cc(Br)ccc1-n1nc(C(=O)NCC(=O)NCCC2=CCCCC2)c2ccccc2c1=O
7.89

* * *

- System: Candida albicans
- Procedure details: Antifungal activity against Candida albicans HLY4123 after 16 hrs in presence of 0.001 ug/ml of isavuconazole by ten fold serial dilution method
- Type: functional
- Run conditions: HLY4123, 16 h
So I've got a bunch of compounds here, and I need their EC50 values.
Numbers only, in nM.

| Test smiles | EC50 (nM) |
| --- | --- |
| COc1cc(Br)ccc1-n1cc(C(=O)NCC(=O)NCCC2=CCCCC2)c2ccccc2c1=O | 6 |

Identify measured EC50 associated with COc1cc(Br)ccc1-n1nc(C(=O)NCC(=O)NCCC2=CCCCC2)c2ccccc2c1=O
4

* * *

So I've got a bunch of compounds here, and I need their EC50 values.
- Procedure details: Antifungal activity against fluconazole-resistant Candida albicans clinical isolate 17 after 16 hrs in presence of 12 ug/ml fluconazole by broth microdilution assay
- Format: functional
Numbers only, in nM.

| Test smiles | Property name | Result units | Obs value |
| --- | --- | --- | --- |
| COc1cc(Br)ccc1-n1nc(C(=O)NCC(=O)NCCC2=CCCCC2)c2ccccc2c1=O | EC50 | nM | 39 |

Identify measured EC50 associated with COc1cc(Br)ccc1-n1cc(C(=O)NCC(=O)NCCC2=CCCCC2)c2ccccc2c1=O
74
